Entry source: PubChem BioAssay (NCI)

Test system: NCI-H23 lung
Test: NCI tumour cell line growth inhibition, 48 h
Property Measured: GI50

> print(dat)
                            compound  reported.measurement
1  COc1cccc2c1nc1cccc(OC)c1[n+]2[O-]               2.56 µM

Lab note: each compound below needs its GI50 filled in.
1. Cc1c2cnccc2c(C)c2c1c1cc(C(=O)O)ccc1n2C
2. Cc1ccc(Nc2[nH]c(C(=O)c3ccc(Cl)cc3)c(N)c2C(=S)Nc2ccccc2)nc1
3. COc1cc(-c2cc(-c3nc4cc(Cl)c(Cl)cc4[nH]3)[nH]n2)cc(OC)c1OC
4. O=C(C[C@@]1(O)C(=O)Nc2c(Cl)ccc(Cl)c21)c1ccc(C2CC2)cc1

Response:
1. 0.774 µM
2. 35.1 µM
3. 3.4 µM
4. 0.634 µM

Lab note: each compound below needs its GI50 filled in.
1. C=CC(=O)NCCOc1cccc(Nc2cc(NCCCNC(=O)C3CCC3)c(Br)cn2)c1
2. O=C1OCC2=C1C(c1cccc(C(F)(F)F)c1)c1cc3c(cc1N2CCO)OCO3 (stereo not given)
3. COc1ccc(C2=CC(c3ccc(Oc4ccnc5cc(Cl)ccc45)c(OC)c3)c3c(nc(OC)[nH]c3=O)N2)cc1 (stereo not given)

Response:
1: 1.07 µM; 2: 2.72 µM; 3: 9.03 µM

Lab note: each compound below needs its GI50 filled in.
1. O=[N+]([O-])c1cccc(/C=C/c2ccccn2)c1
2. O=S(=O)(CC#CCCCOCC#Cc1ccccc1C#CCS(=O)(=O)c1ccccc1)c1ccccc1

Response:
1. 30 µM
2. 15.5 µM
